Hey, just so you know, these numbers are from patent US10660877B2.

Record form. Attribute: IC50. Fill in for each entry.
Biological target: human TLR8 (Homo sapiens (Human))
Sequence (Q9NR97 27-1041): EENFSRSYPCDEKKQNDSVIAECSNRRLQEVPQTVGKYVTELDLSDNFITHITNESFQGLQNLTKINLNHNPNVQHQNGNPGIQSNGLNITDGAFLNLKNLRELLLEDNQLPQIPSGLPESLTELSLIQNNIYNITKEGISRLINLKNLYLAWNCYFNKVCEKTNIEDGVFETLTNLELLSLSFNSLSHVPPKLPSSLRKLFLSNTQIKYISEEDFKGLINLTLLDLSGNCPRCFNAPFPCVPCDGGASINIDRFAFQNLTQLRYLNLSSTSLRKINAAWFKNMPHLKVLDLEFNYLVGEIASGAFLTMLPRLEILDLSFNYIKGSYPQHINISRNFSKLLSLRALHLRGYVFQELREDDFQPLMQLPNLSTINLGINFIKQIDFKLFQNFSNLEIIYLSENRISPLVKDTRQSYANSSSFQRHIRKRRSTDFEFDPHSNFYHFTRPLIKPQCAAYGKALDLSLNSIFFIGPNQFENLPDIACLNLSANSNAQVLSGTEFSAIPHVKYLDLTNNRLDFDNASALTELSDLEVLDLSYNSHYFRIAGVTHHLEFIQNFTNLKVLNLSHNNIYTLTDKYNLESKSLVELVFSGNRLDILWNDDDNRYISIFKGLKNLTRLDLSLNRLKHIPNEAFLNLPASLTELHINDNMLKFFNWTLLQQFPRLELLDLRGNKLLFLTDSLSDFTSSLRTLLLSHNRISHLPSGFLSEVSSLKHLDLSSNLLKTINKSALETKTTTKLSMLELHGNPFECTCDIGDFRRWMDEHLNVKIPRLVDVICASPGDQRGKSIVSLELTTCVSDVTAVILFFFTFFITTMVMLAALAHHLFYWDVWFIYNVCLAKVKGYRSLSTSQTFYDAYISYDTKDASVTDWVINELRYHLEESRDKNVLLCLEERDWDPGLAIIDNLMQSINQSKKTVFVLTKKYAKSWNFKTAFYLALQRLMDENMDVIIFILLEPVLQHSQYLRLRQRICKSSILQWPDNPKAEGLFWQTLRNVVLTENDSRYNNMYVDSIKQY
Experiment: TLR8 inhibition reporter assay (HEK-Blue cells, SEAP reporter, R848 stimulation);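 also: compounds tested from 0.05 nM to 50 µM, 22 h at 37 °C, SEAP measured with HEK-Blue Detection, inhibition relative to agonist plus DMSO versus a known inhibitor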
Details: read-out: TLR8 IC50, HEK-Blue cells overexpressing human TLR8, R848 15.9 μM
API: value field is a number in µM; no unit string.

Form field IC50, entry Cc1cc(-c2[nH]c3ccc(C4CCNCC4)cc3c2C(C)C)c(CO)cn1 : 0.0025

Form field IC50, entry Cc1cc(-c2[nH]c3ccc(C4CCN(C(C)CF)CC4)cc3c2C(C)C)cc(C)n1 (stereo not drawn) : 0.0132

Form field IC50, entry Cc1cc(-c2[nH]c3ccc(C4CCN(C(=O)C5CNC(=O)C5)CC4)cc3c2C(C)C)ccn1 (stereo not drawn) : 0.162

Form field IC50, entry Cc1cc(C(=O)N2CCC(c3ccc4[nH]c(-c5cc(C)nc(C)c5)c(C(C)C)c4c3)CC2)c(=O)[nH]n1 : 0.0999

Form field IC50, entry CNC(=O)C(=O)N1CCC(c2ccc3[nH]c(-c4cc(C)nc(C)c4)c(C(C)C)c3c2)CC1 [Example 204] : 0.0629

Form field IC50, entry Cc1cc(-c2[nH]c3ccc(C4CCN(C(=O)c5cnn(C)c5)CC4)cc3c2C(C)C)cc(C)n1 : 0.0908

Form field IC50, entry Cc1cc(-c2[nH]c3ccc(C4CCN(C(=O)CC5C(=O)NC(=O)N5C)CC4)cc3c2C(C)C)cc(C)n1 (stereo not drawn) : 0.0735

Form field IC50, entry Cc1cc(-c2[nH]c3ccc(C4CCN(C(=O)C5CC(=O)N(C)C5)CC4)cc3c2C(C)C)ccn1 (stereo not drawn) [Example 566] : 0.118

Form field IC50, entry Cc1cc(-c2[nH]c3ccc(C4CCN(C(=O)c5cn(C)nc5C)CC4)cc3c2C(C)C)cc(C)n1 : 0.0605

Form field IC50, entry CCc1c(-c2ccnc(OC)c2)[nH]c2ccc(C3CCN(C4CCN(C(C)C)CC4)CC3)cc12 : 0.0504

Form field IC50, entry CNC(=O)CN1CCC(c2ccc3[nH]c(-c4cc(C)nc(C)c4F)c(C(C)C)c3c2)CC1 : 0.0042

Form field IC50, entry Cc1cc(-c2[nH]c3ccc(C4CCN(C5CCOC6CCCC65)CC4)cc3c2C(C)C)cc(C)n1 (stereo not drawn) : 0.0213

Form field IC50, entry Cc1cc(-c2[nH]c3ccc(C4CCN(Cc5cncs5)CC4)cc3c2C(C)C)c(C)cn1 : 0.0018

Form field IC50, entry Cc1cc(-c2[nH]c3ccc(C4CCN(C(=O)CN(C)C)CC4)cc3c2C(C)C)cc(C)n1 : 0.008

Form field IC50, entry Cc1cc(-c2[nH]c3ccc(C4CCN(CC(=O)NC5CCOC5)CC4)cc3c2C(C)C)cc(C)n1 (stereo not drawn) : 0.009

Form field IC50, entry Cc1cc(-c2[nH]c3ccc(C4CCN(CC(F)(F)F)CC4)cc3c2C(C)C)ccn1 : 0.645

Form field IC50, entry CCc1c(-c2ccnc(Cl)c2)[nH]c2ccc(C3CCNCC3)cc12 : 0.0194

Form field IC50, entry Cc1cc(-c2[nH]c3ccc(C4CCN(CCC#N)CC4)cc3c2C(C)C)c(C)cn1 : 0.0022

Form field IC50, entry Cc1cc(-c2[nH]c3ccc(C4CCN(CC(=O)NC(C)C)CC4)cc3c2C(C)C)cc(C)n1 : 0.0105

Form field IC50, entry CCc1c(-c2ccnc(OC)c2)[nH]c2ccc(C3CCN(C4CCN(CC(C)C)CC4)CC3)cc12 : 0.0811

Form field IC50, entry CCc1c(-c2ccnc(O)c2)[nH]c2ccc(C3CCN(C4CCN(CC(C)C)CC4)CC3)cc12 : 0.341

Form field IC50, entry Cc1cc(-c2[nH]c3ccc(C4CCN(C(=O)CN(C)C5CCS(=O)(=O)C5)CC4)cc3c2C(C)C)cc(C)n1 (stereo not drawn) : 0.0423

Form field IC50, entry Cc1cc(-c2[nH]c3ccc(C4CCN(C(=O)CCn5nc(C)cc5C)CC4)cc3c2C(C)C)cc(C)n1 : 0.224

Form field IC50, entry Cc1cc(-c2[nH]c3ccc(C4CCN(CC(=O)N5CCC(F)CC5)CC4)cc3c2C(C)C)cc(C)n1 : 0.0089

Form field IC50, entry Cc1cc(-c2[nH]c3ccc(C4CCN(C(=O)CC#N)CC4)cc3c2C(C)C)ccn1 : 0.121

Form field IC50, entry CC(C)c1c(-c2ccncc2F)[nH]c2ccc(C3CCNCC3)cc12 : 0.195

Form field IC50, entry CCc1c(-c2ccncc2)[nH]c2ccc(C3CCN(C4CCN(CC(C)C)CC4)CC3)cc12 : 0.0866
